- ASSAY TARGET: Lyn (Homo sapiens, UniProt P07948)
- Sequence (P07948 whole entry): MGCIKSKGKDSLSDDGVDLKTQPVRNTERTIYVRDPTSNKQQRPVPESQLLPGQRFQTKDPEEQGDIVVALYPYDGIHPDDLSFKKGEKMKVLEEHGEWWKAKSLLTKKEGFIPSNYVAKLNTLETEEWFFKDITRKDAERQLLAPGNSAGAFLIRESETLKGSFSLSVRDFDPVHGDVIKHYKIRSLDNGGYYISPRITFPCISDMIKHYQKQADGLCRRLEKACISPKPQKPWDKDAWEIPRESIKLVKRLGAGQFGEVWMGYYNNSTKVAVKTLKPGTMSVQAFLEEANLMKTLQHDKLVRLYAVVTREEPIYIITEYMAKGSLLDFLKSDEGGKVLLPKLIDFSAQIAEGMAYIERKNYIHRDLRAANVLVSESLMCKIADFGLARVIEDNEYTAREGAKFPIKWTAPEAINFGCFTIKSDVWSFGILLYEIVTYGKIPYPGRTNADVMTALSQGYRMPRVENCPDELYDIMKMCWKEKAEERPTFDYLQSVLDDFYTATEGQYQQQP
- TEST SUMMARY: Kinase Selectivity Assay (CEREP, HTRF)
- Format: biochemical
- ASSAY CONTEXT: read-out: % Inhibition at 10 μM Concentration, Lyn
MEASUREMENT TYPE: inhibition at 10 µM (%)

Some molecules with known inhibition at 10 µM results, for comparison:
# MOLECULE, ASSAY TARGET, UNIT NAME, inhibition at 10 µM
records = [
    ("O=C1Nc2ccccc2/C1=C\\c1ccc2cn[nH]c2c1", "Lyn (Homo sapiens, UniProt P07948)", "%", -5),
    ("O=C1Nc2ccccc2C1=Cc1ccc2c(/C=C/c3ccccn3)n[nH]c2c1 (mixture of isomers)", "Lyn (Homo sapiens, UniProt P07948)", "%", 98),
    ("COc1ccc2c(c1)C(=Cc1ccc3c(-c4ccc(N5CCN(C)CC5)nc4)n[nH]c3c1)C(=O)N2 (mixture of isomers)", "Lyn (Homo sapiens, UniProt P07948)", "%", 85),
]

I: O=C1Nc2ccccc2/C1=C\c1ccc2c(/C=C/c3ccccc3Cl)n[nH]c2c1
II: O=C1Nc2ccccc2/C1=C\c1ccc2[nH]nnc2c1
Q. Among I and II , which shows a numerically higher inhibition at 10 µM result? Provide the label of your selected option as the answer.
A. I
